FYI, the data here is from PubChem BioAssay.

# measurement notes: forskolin-driven CRE-LacZ activity in PC12 – cell-based, CRE-LacZ reporter, forskolin-stimulated, primary screen (AID 1146);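 also: PC12 cells with 6xCRE LacZ reporter stimulated by forskolin 10 µM; beta-galactosidase reporter signal reflecting CREB driven transcription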
# measurement parameters: luminescence, 4.5 h, higher = more signal, called active from +8 up or from −8 down
Listing of entries alongside the reported z-score.

- molecule: "COCCOC(=O)N1C(=O)[C@@]2(c3cc(C#CCCO)ccc31)[C@H](c1ccc(OCCO)cc1)N1[C@H](c3ccccc3)[C@H](c3ccccc3)OC(=O)[C@H]1[C@@H]2C(N)=O"
  z-score: 1.71
- molecule: "C#CCN1[C@@H](Cc2ccc(O)cc2)C(=O)O[C@H](Cc2ccccc2)[C@@H]1/C=C/C1CC1"
  z-score: 1.42
- molecule: "C=C(CCCC)/C(=C/C[C@@H](OC(C)=O)c1cccc(OCCO)c1)c1cnc2ccccc2c1"
  z-score: -0.307
- molecule: "O=C1C2C=CC(C(O)c3ccc(-c4ccccc4)s3)N(Nc3ccccc3)C2C(=O)N1c1ccccc1 (configuration not stated)"
  z-score: 0.117
- molecule: "COCCCNC(=O)[C@@]1(CCS(=O)(=O)c2ccccc2)N=C(c2ccc(OCCCO)cc2)O[C@H]1c1ccccc1N=[N+]=[N-]"
  z-score: -1.15
- molecule: "COc1ccc(C(O)C2C=CC3C(=O)N(C)C(=O)C3N2NC(=O)OC(C)(C)C)c2ccccc12 (configuration not stated)"
  z-score: -0.0415
- molecule: "O=C(NCCN1CCOCC1)[C@@H]1c2ccccc2C(=O)N(Cc2cc(C(F)(F)F)cc(C(F)(F)F)c2)[C@H]1c1ccc(CO)cc1"
  z-score: -0.713

----------
# System: Wnt5a (protein binding on small-molecule microarray)
# measurement notes: small molecules binding Wnt5a protein – biophysical, small-molecule microarray, 635/667 nm fluorescence, primary screen (AID 1142);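 also: fluorescence read at 667 nm with signal to noise per printed feature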
# measurement parameters: 635 nm fluorescence, higher = more signal
Output schema: class label derived from composite z-score. Mapping: low (below 0.02), medium (0.02 to below 0.2), high (0.2 or more)

- molecule: "[N-]=[N+]=Nc1ccccc1[C@H]1OC(c2ccc(OCCCO)cc2)=N[C@@]1(CCS(=O)(=O)c1ccccc1)C(=O)NCc1ccccc1"
  target system: "Wnt5a (protein binding on small-molecule microarray)"
  group: "high"
- molecule: "COc1cc2c(cc1O)C(c1cccs1)N(Cc1ccc([N+](=O)[O-])o1)CC2 (stereo not drawn)"
  target system: "Wnt5a (protein binding on small-molecule microarray)"
  group: "high"
- molecule: "O=C(NCc1ccccc1)[C@@H]1c2ccccc2C(=O)N(C2Cc3ccccc3C2)[C@H]1c1ccc(CO)cc1"
  target system: "Wnt5a (protein binding on small-molecule microarray)"
  group: "high"
- molecule: "COC(=O)C(CC#Cc1ccc2c(c1)[C@]1(C(=O)N2)[C@H](c2ccc(O)cc2)N2[C@H](c3ccccc3)[C@H](c3ccccc3)OC(=O)[C@H]2[C@@H]1C(=O)N1CCN(c2ncccn2)CC1)C(=O)OC"
  target system: "Wnt5a (protein binding on small-molecule microarray)"
  group: "medium"
- molecule: "COCC(=C=CC[C@@H](O)c1ccc(OCCO)cc1)C[C@@H](O)c1ccccn1"
  target system: "Wnt5a (protein binding on small-molecule microarray)"
  group: "medium"
- molecule: "COc1ccc(CCNC(=O)[C@@]2(c3ccc([N+](=O)[O-])cc3)CC(=O)N(CC34CC5CC(CC(C5)C3)C4)[C@@H]2c2ccc(CO)cc2I)cc1"
  target system: "Wnt5a (protein binding on small-molecule microarray)"
  group: "high"
- molecule: "C=CC[C@]1(C(N)=O)N=C(c2ccc(OCCCO)cc2)O[C@H]1c1ccccc1"
  target system: "Wnt5a (protein binding on small-molecule microarray)"
  group: "high"
- molecule: "CCOC(=O)C[C@H]1[C@H](OC(=O)c2ccc(-c3ccccc3)cc2)[C@@H](NC(=O)c2ccccc2)c2cc(OCCCO)ccc2N1C(=O)Cc1ccc(OC)cc1"
  target system: "Wnt5a (protein binding on small-molecule microarray)"
  group: "low"
- molecule: "C=CC[C@]1(C(=O)NCc2ccccc2)N=C(c2ccc(OCCCO)cc2)O[C@H]1c1ccccc1CN=[N+]=[N-]"
  target system: "Wnt5a (protein binding on small-molecule microarray)"
  group: "high"
- molecule: "O=c1cccc(-c2ccccc2Cl)o1"
  target system: "Wnt5a (protein binding on small-molecule microarray)"
  group: "low"
- molecule: "O=C1C2C=CC(C(O)C=Cc3ccc([N+](=O)[O-])cc3)N(n3cnnc3)C2C(=O)N1Cc1ccccc1 (stereo not drawn)"
  target system: "Wnt5a (protein binding on small-molecule microarray)"
  group: "medium"
- molecule: "CCCNC(=O)[C@@H]1c2ccccc2C(=O)N(Cc2ccccc2OC)[C@H]1c1ccc(CO)cc1"
  target system: "Wnt5a (protein binding on small-molecule microarray)"
  group: "high"
- molecule: "CCCCC(O)C1C=CC2C(=O)N(C)C(=O)C2N1N1CCCCC1 (stereo not drawn)"
  target system: "Wnt5a (protein binding on small-molecule microarray)"
  group: "medium"
- molecule: "O=C1OCC=C[C@H]2OC34C=CCN(CCN5CCOCC5)C(=O)[C@H]3N(CCO)C(=O)[C@@H]4[C@@H]12 (stereo partly drawn)"
  target system: "Wnt5a (protein binding on small-molecule microarray)"
  group: "low"
- molecule: "COCCOC(=O)N1C(=O)[C@@]2(c3ccccc31)[C@H](C(=O)N1CCc3cc(OC)c(OC)cc3C1)[C@H]1C(=O)O[C@H](c3ccccc3)[C@H](c3ccccc3)N1[C@@H]2c1ccc(O)cc1"
  target system: "Wnt5a (protein binding on small-molecule microarray)"
  group: "high"
- molecule: "COC(=O)[C@@]1(Cc2ccc(OC)cc2)[C@H]2c3cc(C(=O)N4CCCC4)n(CCc4ccc(O)c(O)c4)c3C[C@H]2CN1C(=O)c1ccccc1"
  target system: "Wnt5a (protein binding on small-molecule microarray)"
  group: "low"
- molecule: "CCCCN1CC=CC23O[C@@H]4C=CCOC(=O)[C@@H]4[C@H]2C(=O)N(CCCCCCO)[C@@H]3C1=O (stereo partly drawn)"
  target system: "Wnt5a (protein binding on small-molecule microarray)"
  group: "low"
- molecule: "CCOc1ccc(N2C(=O)CSC2c2cccc([N+](=O)[O-])c2)cc1 (stereo not drawn)"
  target system: "Wnt5a (protein binding on small-molecule microarray)"
  group: "medium"
- molecule: "CC(=O)n1cc(C(O)C2C=CC3C(=O)NC(=O)C3N2Nc2ccccn2)c2ccccc21 (stereo not drawn)"
  target system: "Wnt5a (protein binding on small-molecule microarray)"
  group: "medium"
- molecule: "O=C1OCC=C[C@H]2OC34C=CCN(Cn5nnc6ccccc65)C(=O)[C@H]3N(CCCCCO)C(=O)[C@@H]4[C@@H]12 (stereo partly drawn)"
  target system: "Wnt5a (protein binding on small-molecule microarray)"
  group: "high"
- molecule: "O=C1OCCC/C=C\\[C@H]2OC34C=CCN(c5ccc6ccccc6c5)C(=O)[C@H]3N(CCCCCO)C(=O)[C@@H]4C12 (stereo partly drawn)"
  target system: "Wnt5a (protein binding on small-molecule microarray)"
  group: "low"
- molecule: "COC(=O)c1c2oc(c1C(=O)OC)C(=O)NC1(CCCCC1)c1cn(nn1)C[C@H](Cc1ccccc1)NC(=O)N[C@H](CO)CC2"
  target system: "Wnt5a (protein binding on small-molecule microarray)"
  group: "low"
- molecule: "O=C1C2C=CC(C(O)c3ccc4c(c3)OCO4)N(Nc3ccc([N+](=O)[O-])cc3)C2C(=O)N1c1ccccc1 (stereo not drawn)"
  target system: "Wnt5a (protein binding on small-molecule microarray)"
  group: "low"
- molecule: "COc1cc(CO)cc(I)c1O[C@H]1C=C(C(=O)NCCO)C[C@@H](N(C(=O)c2cc3ccccc3oc2=O)C2CCCCCC2)[C@@H]1O"
  target system: "Wnt5a (protein binding on small-molecule microarray)"
  group: "medium"
- molecule: "[N-]=[N+]=NCc1ccccc1[C@@H]1OC(c2ccc(OCCCO)cc2)=N[C@]1(CCS(=O)(=O)c1ccccc1)C(=O)N1CCOCC1"
  target system: "Wnt5a (protein binding on small-molecule microarray)"
  group: "high"
- molecule: "C=C(C)[C@@H]1CC=C(C(O)C2C=CC3C(=O)NC(=O)C3N2Nc2ccc(Cl)cc2Cl)CC1 (stereo partly drawn)"
  target system: "Wnt5a (protein binding on small-molecule microarray)"
  group: "high"
- molecule: "COc1ccc([Si](C)(C)[C@@H]2[C@@H](CCO)O[C@]3(C(=O)N(Cc4cccc(N5CCOC5=O)c4)c4ccccc43)[C@H]2C)cc1"
  target system: "Wnt5a (protein binding on small-molecule microarray)"
  group: "medium"
- molecule: "CCCC[C@@H]1C[C@H]1[C@@H](NC(=O)c1cccnc1)c1ccc(Cl)cc1"
  target system: "Wnt5a (protein binding on small-molecule microarray)"
  group: "low"
